Below, each entry is listed with its recorded IC50.
# Test system: NBT-II cells
# Assay summary: EMT spot migration assay, HGF induced EMT
# Assay type: cell-based
# Experimental parameters: EMT induced by HGF (4 ng/mL), read-out: Cell Dispersion IC50 (nM) HGF
Observed property: IC50 (nM)

CN1CCN(CCOc2cc(OC3CCOCC3)c3c(Nc4c(Cl)ccc5c4OCO5)ncnc3c2)CC1 = 650
Cn1cc(-c2ccc3nnc(C(F)(F)c4ccc5ncccc5c4)n3n2)cn1 = 43
Cn1cnc2c(F)c(Nc3ccc(Br)cc3Cl)c(C(=O)NOCCO)cc21 = 471
S=C(NCc1ccc2c(c1)OCO2)N1CCN(c2ncnc3c2oc2ccccc23)CC1 = 970
